All figures here come from patent US20230167182A1.

- measured.on: T1, human IL6R-Fc protein (human, biotin-labeled in the ELISAs (sites not given))
- T1 construct: In house made; also called biotin-labeled human IL6R-Fc protein
- experiment.notes: capture ELISA: antibody captured on anti-IgG F(ab')2 coated plate, then biotin-labeled human IL6R-Fc, streptavidin-HRP
quantity.name: pEC50
In simple prose, pEC50 is minus the logarithm base ten of a concentration in moles per litre.

Q: State the recorded pEC50 for this entry: Chimeric 1H7 (antibody, human IgG1, kappa, V domains shown, Mouse variable regions on human IgG1 / human kappa constant regions; also called chimeric antibody 1H7) VH: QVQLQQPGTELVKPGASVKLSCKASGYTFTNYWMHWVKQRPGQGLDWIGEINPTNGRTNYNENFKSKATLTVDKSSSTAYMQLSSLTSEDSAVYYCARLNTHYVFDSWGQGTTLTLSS VL: EIVLTQSPTTLAASPGEKITFTCSVSSSISSNYLHWYQQKPGFSPKLLISRTSTLASGVPARFSGSGSGTSYSLTIGTMEAEDVATYYCQQGSGIPFTFGSGTKLELKR
Result: 9.70
